- EXPERIMENT_NOTES: Pharmacokinetics of Compound 4 in mice (IV and PO)
- Type: in vivo, BALB/c nude female mice
- APPLIED_CONDITIONS: female, BALB/c nude, mouse, plasma, oral, 20 mg/kg, 20 mg/kg PO, 4 hr, mean; read-out: Plasma concentration Mean PO
READOUT_KIND: concentration at 4 hr (ng/mL)

>>> value("NCCCOc1cc2ccccc2cc1C(=O)NCCCOc1cc2ccccc2cc1C(=O)Nc1ccc(Cl)cc1O")
104

====

- EXPERIMENT_NOTES: Pharmacokinetics of Compound 4 in mice (IV and PO)
- Type: in vivo, BALB/c nude female mice
- APPLIED_CONDITIONS: female, BALB/c nude, mouse, plasma, oral, 20 mg/kg, 20 mg/kg PO, 8 hr, G5; read-out: Plasma concentration G5
READOUT_KIND: concentration at 8 hr (ng/mL)

>>> value("NCCCOc1cc2ccccc2cc1C(=O)NCCCOc1cc2ccccc2cc1C(=O)Nc1ccc(Cl)cc1O")
30.1

====

- EXPERIMENT_NOTES: Pharmacokinetics of Compound 4 in mice (IV and PO)
- Format: in vivo, BALB/c nude female mice
- APPLIED_CONDITIONS: female, BALB/c nude, mouse, plasma, intravenous, 2 mg/kg, 2 mg/kg IV, 0.25 hr, G3; read-out: Plasma concentration G3
READOUT_KIND: concentration at 0.25 hr (ng/mL)

>>> value("NCCCOc1cc2ccccc2cc1C(=O)NCCCOc1cc2ccccc2cc1C(=O)Nc1ccc(Cl)cc1O [Compound 4]")
1610

====

- EXPERIMENT_NOTES: Pharmacokinetics of Compound 4 in mice (IV and PO)
- Type: in vivo, BALB/c nude female mice
- APPLIED_CONDITIONS: female, BALB/c nude, mouse, plasma, intravenous, 2 mg/kg, 2 mg/kg IV, 24 hr, G3; read-out: Plasma concentration G3
READOUT_KIND: concentration at 24 hr

>>> value("NCCCOc1cc2ccccc2cc1C(=O)NCCCOc1cc2ccccc2cc1C(=O)Nc1ccc(Cl)cc1O")
"13.3 ng/mL"

====

- EXPERIMENT_NOTES: Pharmacokinetics of Compound 4 in mice (IV and PO)
- Assay type: in vivo, BALB/c nude female mice
- APPLIED_CONDITIONS: female, BALB/c nude, mouse, plasma, intravenous, 2 mg/kg, 2 mg/kg IV, 8 hr, G2; read-out: Plasma concentration G2
READOUT_KIND: concentration at 8 hr (ng/mL)

>>> value("NCCCOc1cc2ccccc2cc1C(=O)NCCCOc1cc2ccccc2cc1C(=O)Nc1ccc(Cl)cc1O")
58.7

====

- Test system: MDA-MB-231 (human breast cancer cells)
- EXPERIMENT_NOTES: MTT cell growth inhibition, 72 h, MDA-MB-231
- Type: cell-based
- APPLIED_CONDITIONS: MDA-MB-231, 72 h, read-out: MDA-MB-231 (GI50)
Cut-off 400 nM on GI50: below means Yes, at or above means No.

>>> qualitative_label("NCCCOc1nc2ccccc2cc1C(=O)NCCOc1nc2ccccc2cc1C(=O)Nc1ccc(Cl)cc1O")
"No"
>>> qualitative_label("NCCCOc1nc2ccccc2cc1C(=O)NCCOc1nc2ccccc2cc1C(=O)Nc1ccc(Cl)cc1F")
"Yes"
>>> qualitative_label("NCCCOc1cc2ccccc2cc1C(=O)NCCCOc1cc2ccccc2cc1C(=O)Nc1ccc(Cl)cc1O")
"Yes"
>>> qualitative_label("NCCCOc1cc2ccccc2cc1C(=O)NCCOc1nc2ccccc2cc1C(=O)Nc1ccc(Cl)cc1O")
"Yes"
>>> qualitative_label("NCCCOc1nc2ccccc2cc1C(=O)NCCOc1cc2ccccc2cc1C(=O)Nc1ccc(Cl)cc1O")
"No"

====

- EXPERIMENT_NOTES: Pharmacokinetics of Compound 4 in mice (IV and PO)
- Type: in vivo, BALB/c nude female mice
- APPLIED_CONDITIONS: female, BALB/c nude, mouse, plasma, intravenous, 2 mg/kg, 2 mg/kg IV, 2 hr, G1; read-out: Plasma concentration G1
- Method: The pharmacokinetics of Compound 4 was assessed in BALB/c nude female mice. Doses were 2 mg/kg administered intravenously (IV) and 20 mg/kg administered orally (PO). The intravenous formulation was administered in 1% N-Methyl-2-pyrrolidone (NMP) in water and was a clear solution. The per os solution was in 1.3% NMP+5% Tween-20® in a clear solution.
READOUT_KIND: concentration at 2 hr (ng/mL)

>>> value("NCCCOc1cc2ccccc2cc1C(=O)NCCCOc1cc2ccccc2cc1C(=O)Nc1ccc(Cl)cc1O [Compound 4]")
275

====

- EXPERIMENT_NOTES: Pharmacokinetics of Compound 4 in mice (IV and PO)
- Format: in vivo, BALB/c nude female mice
- APPLIED_CONDITIONS: female, BALB/c nude, mouse, plasma, intravenous, 2 mg/kg, 2 mg/kg IV, 2 hr, mean; read-out: Plasma concentration Mean IV
READOUT_KIND: concentration at 2 hr (ng/mL)

>>> value("NCCCOc1cc2ccccc2cc1C(=O)NCCCOc1cc2ccccc2cc1C(=O)Nc1ccc(Cl)cc1O")
186

====

- EXPERIMENT_NOTES: Pharmacokinetics of Compound 4 in mice (IV and PO)
- Format: in vivo, BALB/c nude female mice
- APPLIED_CONDITIONS: female, BALB/c nude, mouse, plasma, oral, 20 mg/kg, 20 mg/kg PO, 4 hr, G5; read-out: Plasma concentration G5
READOUT_KIND: concentration at 4 hr (µg/mL)

>>> value("NCCCOc1cc2ccccc2cc1C(=O)NCCCOc1cc2ccccc2cc1C(=O)Nc1ccc(Cl)cc1O [Compound 4]")
0.0659

====

- EXPERIMENT_NOTES: Pharmacokinetics of Compound 4 in mice (IV and PO)
- Type: in vivo, BALB/c nude female mice
- APPLIED_CONDITIONS: female, BALB/c nude, mouse, plasma; 2 mg/kg IV
READOUT_KIND: half-life (h)

>>> value("NCCCOc1cc2ccccc2cc1C(=O)NCCCOc1cc2ccccc2cc1C(=O)Nc1ccc(Cl)cc1O")
9.6

====

- EXPERIMENT_NOTES: Pharmacokinetics of Compound 4 in mice (IV and PO)
- Assay type: in vivo, BALB/c nude female mice
- APPLIED_CONDITIONS: female, BALB/c nude, mouse, plasma, intravenous, 2 mg/kg, 2 mg/kg IV, 0.5 hr, G1; read-out: Plasma concentration G1
READOUT_KIND: concentration at 0.5 hr

>>> value("NCCCOc1cc2ccccc2cc1C(=O)NCCCOc1cc2ccccc2cc1C(=O)Nc1ccc(Cl)cc1O")
"1130 ng/mL"

====

- EXPERIMENT_NOTES: Pharmacokinetics of Compound 4 in mice (IV and PO)
- Assay type: in vivo, BALB/c nude female mice
- APPLIED_CONDITIONS: female, BALB/c nude, mouse, plasma, oral, 20 mg/kg, 20 mg/kg PO, 0.5 hr, G4; read-out: Plasma concentration G4
READOUT_KIND: concentration at 0.5 hr (ng/mL)

>>> value("NCCCOc1cc2ccccc2cc1C(=O)NCCCOc1cc2ccccc2cc1C(=O)Nc1ccc(Cl)cc1O")
92

====

- EXPERIMENT_NOTES: Pharmacokinetics of Compound 4 in mice (IV and PO)
- Type: in vivo, BALB/c nude female mice
- APPLIED_CONDITIONS: female, BALB/c nude, mouse, plasma; 20 mg/kg PO
READOUT_KIND: half-life (h)

>>> value("NCCCOc1cc2ccccc2cc1C(=O)NCCCOc1cc2ccccc2cc1C(=O)Nc1ccc(Cl)cc1O")
9.1

====

- EXPERIMENT_NOTES: Pharmacokinetics of Compound 4 in mice (IV and PO)
- Type: in vivo, BALB/c nude female mice
- APPLIED_CONDITIONS: female, BALB/c nude, mouse, plasma, oral, 20 mg/kg, 20 mg/kg PO, 24 hr, mean; read-out: Plasma concentration Mean PO
READOUT_KIND: concentration at 24 hr (ng/mL)

>>> value("NCCCOc1cc2ccccc2cc1C(=O)NCCCOc1cc2ccccc2cc1C(=O)Nc1ccc(Cl)cc1O")
18.1

====

- EXPERIMENT_NOTES: Pharmacokinetics of Compound 4 in mice (IV and PO)
- Format: in vivo, BALB/c nude female mice
- APPLIED_CONDITIONS: female, BALB/c nude, mouse, plasma, oral, 20 mg/kg, 20 mg/kg PO, 0.5 hr, G5; read-out: Plasma concentration G5
READOUT_KIND: concentration at 0.5 hr (ng/mL)

>>> value("NCCCOc1cc2ccccc2cc1C(=O)NCCCOc1cc2ccccc2cc1C(=O)Nc1ccc(Cl)cc1O")
82.4

====

- EXPERIMENT_NOTES: Pharmacokinetics of Compound 4 in mice (IV and PO)
- Format: in vivo, BALB/c nude female mice
- APPLIED_CONDITIONS: female, BALB/c nude, mouse, plasma; 2 mg/kg IV; read-out: Vss
- Procedure: The pharmacokinetics of Compound 4 was assessed in BALB/c nude female mice. Doses were 2 mg/kg administered intravenously (IV) and 20 mg/kg administered orally (PO). The intravenous formulation was administered in 1% N-Methyl-2-pyrrolidone (NMP) in water and was a clear solution. The per os solution was in 1.3% NMP+5% Tween-20® in a clear solution.
READOUT_KIND: Vd

>>> value("NCCCOc1cc2ccccc2cc1C(=O)NCCCOc1cc2ccccc2cc1C(=O)Nc1ccc(Cl)cc1O")
"4.8 L/kg"
